# pKd annotations
# subject of test: T1, MICA009Avi (human)
# T1 construct: extracellular domain
# procedure summary: BLI (GatorPrime); antibody on anti-hIgG Fc probe, monomeric antigen in solution;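 also: binding kinetics of anti-MICA/B antibodies measured by biolayer interferometry, with dissociation followed for about 10 min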
Here pKd is given on a logarithmic scale as minus log10 of the concentration in mol/L.

Use these answered entries as a reference point.
[
  {
    "binder": "3F9 (antibody, human IgG1, kappa, V domains shown, also called benchmark 3F9) VH: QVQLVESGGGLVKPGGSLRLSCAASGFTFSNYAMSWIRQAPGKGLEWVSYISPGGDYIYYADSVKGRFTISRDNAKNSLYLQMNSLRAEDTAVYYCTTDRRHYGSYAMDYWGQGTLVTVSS VL: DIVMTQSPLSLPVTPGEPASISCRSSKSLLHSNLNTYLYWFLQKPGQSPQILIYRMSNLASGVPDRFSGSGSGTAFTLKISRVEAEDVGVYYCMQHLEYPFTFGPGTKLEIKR",
    "pKd": 9.03
  },
  {
    "binder": "13A9 (antibody, human IgG1, kappa, V domains shown) VH: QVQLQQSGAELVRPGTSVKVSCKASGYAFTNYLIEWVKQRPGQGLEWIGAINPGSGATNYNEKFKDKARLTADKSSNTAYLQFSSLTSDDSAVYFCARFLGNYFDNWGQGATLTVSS VL: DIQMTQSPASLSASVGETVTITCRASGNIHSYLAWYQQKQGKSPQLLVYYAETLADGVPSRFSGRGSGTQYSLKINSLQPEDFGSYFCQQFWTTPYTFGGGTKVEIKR",
    "pKd": 9.58
  },
  {
    "binder": "6E1.1.12 (antibody, human IgG1, kappa, V domains shown) VH: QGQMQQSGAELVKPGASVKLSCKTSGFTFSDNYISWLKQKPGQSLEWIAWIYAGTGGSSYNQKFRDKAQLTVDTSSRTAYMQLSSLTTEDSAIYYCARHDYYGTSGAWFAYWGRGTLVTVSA VL: DVLMTQTPLSLPVSLGDQASISCRSSQHIVHSNENTYLEWYLQKPGQSPKLLIYKVSNRFSGVPDRFSGSGSGTDFTLKISRVEAEDLGVYYCFQGSHVPWTFGGGTKVEIKR",
    "pKd": 8.40
  },
  {
    "binder": "1D5 (antibody, human IgG1, kappa, V domains shown, also called ID5) VH: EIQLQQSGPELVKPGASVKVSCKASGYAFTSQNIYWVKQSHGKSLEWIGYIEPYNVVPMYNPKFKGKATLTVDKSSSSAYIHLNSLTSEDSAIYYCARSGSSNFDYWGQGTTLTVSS VL: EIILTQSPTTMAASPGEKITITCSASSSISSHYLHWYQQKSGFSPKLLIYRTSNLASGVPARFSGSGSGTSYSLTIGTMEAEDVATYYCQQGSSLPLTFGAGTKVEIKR",
    "pKd": 9.96
  }
]

Consider now this further binder.
Give reported pKd value for B10G5 (antibody, human IgG1, kappa, V domains shown, also called B10G5-2; P2B10G5) VH: EVQLEESGPGLVKPSQSLSLTCTVTGYSITSDYAWNWIRQFPGNKLEWMGYISYSGSTNYNPSLKSRISITRDTSKNQFFLQLNSVITEDTATYYCARGGTYFDYWGQGTTLTVSS VL: DIVLTQTTSYLSVSLGGRVTIACKASAHINNWLAWYQQKPGNAPRLLISDATSLETGVPSRFSGSGSGKDYTLSITSLQTEDVATYYCQHYWSTPWTFGGGTKLEIKR 9.15
